Please respond with reported pIC50 for every item in the list.
- Tested on: 134 cancer cell lines
- assay comment: Cell viability assay (ATPlite, 72 hours), IC50 on cancer cell line panel
- cond: Homo sapiens, RL95-2, read-out: IC50 in cell proliferation assay, cell line RL95-2 (EGFR p.A289V)
Give bare numbers, as −log10 of the molar value.

Worked cases, answers included:
CC(=O)Nc1cccc(-n2c(=O)n(C3CC3)c(=O)c3c(Nc4ccc(I)cc4F)n(C)c(=O)c(C)c32)c1; 8.81
CC(C)(C)c1nc(-c2cccc(NS(=O)(=O)c3c(F)cccc3F)c2F)c(-c2ccnc(N)n2)s1; 5.52
Cc1nc(NC(=O)N2CCC[C@H]2C(N)=O)sc1-c1ccnc(C(C)(C)C(F)(F)F)c1; 4.74
CO[C@]1(C(=O)N[C@@H](C)c2ccc(-n3cc(F)cn3)nc2)CC[C@H](c2nc(C)cc(Nc3cc(C)[nH]n3)n2)CC1; 5.86

Please examine the following record next.
# pIC50 of C[C@H](Nc1ncnc2nc[nH]c12)c1cc2cccc(Cl)c2c(=O)n1-c1ccccc1 = 5.44

###

- system tested: UniProt:Q9NQU5
- Sequence (Q9NQU5 whole entry): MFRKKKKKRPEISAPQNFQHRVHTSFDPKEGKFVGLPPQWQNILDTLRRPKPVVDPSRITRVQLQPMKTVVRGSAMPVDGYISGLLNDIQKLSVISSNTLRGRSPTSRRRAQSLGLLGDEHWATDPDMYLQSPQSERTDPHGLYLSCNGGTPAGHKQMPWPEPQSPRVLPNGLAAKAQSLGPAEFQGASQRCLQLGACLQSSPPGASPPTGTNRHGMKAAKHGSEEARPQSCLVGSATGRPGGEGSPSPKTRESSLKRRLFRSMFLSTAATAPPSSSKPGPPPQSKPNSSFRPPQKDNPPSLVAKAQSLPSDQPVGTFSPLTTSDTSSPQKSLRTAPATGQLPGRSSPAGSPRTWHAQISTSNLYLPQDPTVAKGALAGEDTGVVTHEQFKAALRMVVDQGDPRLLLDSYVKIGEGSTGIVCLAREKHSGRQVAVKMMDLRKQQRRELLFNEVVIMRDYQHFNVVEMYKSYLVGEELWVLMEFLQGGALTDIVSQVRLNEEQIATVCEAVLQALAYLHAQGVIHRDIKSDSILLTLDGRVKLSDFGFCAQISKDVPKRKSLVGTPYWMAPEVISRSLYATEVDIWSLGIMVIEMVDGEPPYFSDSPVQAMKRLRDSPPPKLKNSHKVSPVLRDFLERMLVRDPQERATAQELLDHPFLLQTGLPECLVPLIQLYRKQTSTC
- assay comment: Kinase panel profiling at 1 µmol/L (MSA or IMAP), percentage inhibition
- Type: biochemical
- cond: PAK6; 1 µmol/L single concentration; read-out: %-inhibition, PAK6
property label: inhibition at 1 µM (%)
One number for each entry, in %.

CCN1C(=O)N(c2c(F)c(OC)cc(OC)c2F)Cc2cnc3[nH]c(CN4CCOCC4)cc3c21; 12
Cc1cc(Nc2ncnc3ccc(NC4=NC(C)(C)CO4)cc23)ccc1Oc1ccn2ncnc2c1; 6.34
COc1ccc(CN2C3CC2CN(c2ccc(-c4cc(OCC(C)(C)O)cn5ncc(C#N)c45)cn2)C3)cn1; 14

Please examine the following record next.
# inhibition at 1 µM of COc1cc2ncnc(Nc3ccc(F)c(Cl)c3)c2cc1NC(=O)/C=C/CN1CCCCC1 = 6.65

###

Please respond with reported IC50 for every item in the list.
- System: 134 cancer cell lines
- assay comment: Cell viability assay (ATPlite, 72 hours), IC50 on cancer cell line panel
- cond: Homo sapiens, HCT-116, read-out: IC50 in cell proliferation assay
Numbers only, in µM.

C=CC(=O)N1CCC[C@@H](n2nc(-c3ccc(Oc4ccccc4)cc3)c3c(N)ncnc32)C1 [ibrutinib]; 26.4

Please examine the following record next.
# IC50 of COc1cc(N2CCC(N3CCN(C)CC3)CC2)ccc1Nc1ncc(Cl)c(Nc2ccccc2P(C)(C)=O)n1 [brigatinib] = 1.69

###

- system tested: panel of 255 wild-type kinases (Homo sapiens, UniProt P41240)
- Sequence (P41240 whole entry): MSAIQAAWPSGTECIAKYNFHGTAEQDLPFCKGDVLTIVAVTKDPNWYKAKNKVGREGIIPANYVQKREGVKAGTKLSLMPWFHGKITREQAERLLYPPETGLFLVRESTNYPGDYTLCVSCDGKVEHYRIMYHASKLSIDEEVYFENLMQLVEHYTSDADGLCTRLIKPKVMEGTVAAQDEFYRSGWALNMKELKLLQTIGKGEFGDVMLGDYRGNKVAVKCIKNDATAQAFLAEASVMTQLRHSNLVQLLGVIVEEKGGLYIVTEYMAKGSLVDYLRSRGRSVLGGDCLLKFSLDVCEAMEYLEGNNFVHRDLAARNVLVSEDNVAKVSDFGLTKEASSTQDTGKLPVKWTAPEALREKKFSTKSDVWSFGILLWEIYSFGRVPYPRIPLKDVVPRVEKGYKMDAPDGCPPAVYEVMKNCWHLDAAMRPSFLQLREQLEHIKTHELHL
- assay comment: Kinase panel profiling at 1 µmol/L (MSA or IMAP), percentage inhibition
- Assay type: biochemical
- cond: kinase CSK; 1 µmol/L single concentration; read-out: %-inhibition at 1 µmol/L, CSK
property label: inhibition at 1 µM (%)
Answers are plain numbers, in %.

Worked cases, answers included:
CCc1nc(C(N)=O)c(Nc2ccc(N3CCC(N4CCN(C)CC4)CC3)c(OC)c2)nc1NC1CCOCC1; 23
Cn1cnc2c(F)c(Nc3ccc(Br)cc3Cl)c(C(=O)NOCCO)cc21; 0.0795
CCN1C(=O)N(c2c(F)c(OC)cc(OC)c2F)Cc2cnc3[nH]c(CN4CCOCC4)cc3c21; 2.28
O=C(Nc1cnn2ccc(N3CCC[C@@H]3c3cc(F)ccc3F)nc12)N1CC[C@H](O)C1; -5
C[C@H](Nc1ncnc2nc[nH]c12)c1cc2cccc(Cl)c2c(=O)n1-c1ccccc1; 1.86
CCN1CCN(c2ccc(Nc3cc(N(C)C(=O)Nc4c(Cl)c(OC)cc(OC)c4Cl)ncn3)cc2)CC1; 2.24
Cc1nc(NC(=O)N2CCC[C@H]2C(N)=O)sc1-c1ccnc(C(C)(C)C(F)(F)F)c1; -0.289
CN1CCN(c2ccc(C(=O)Nc3n[nH]c4ccc(Cc5cc(F)cc(F)c5)cc34)c(NC3CCOCC3)c2)CC1; 8
C[C@H]1Oc2cc(cnc2N)-c2c(nn(C)c2C#N)CN(C)C(=O)c2ccc(F)cc21; 1.12
CO[C@]1(C(=O)N[C@@H](C)c2ccc(-n3cc(F)cn3)nc2)CC[C@H](c2nc(C)cc(Nc3cc(C)[nH]n3)n2)CC1; 0.35

Would you mind listing inhibition at 1 µM for each of the following compounds?
1. COc1cc2ncnc(Nc3ccc(F)c(Cl)c3)c2cc1NC(=O)/C=C/CN1CCCCC1
2. COC(=O)N[C@@H](C)CNc1nccc(-c2cn(C(C)C)nc2-c2cc(Cl)cc(NS(C)(=O)=O)c2F)n1
3. Cn1cnc2c(F)c(Nc3ccc(Br)cc3F)c(C(=O)NOCCO)cc21
4. COc1ccc(CN2C3CC2CN(c2ccc(-c4cc(OCC(C)(C)O)cn5ncc(C#N)c45)cn2)C3)cn1
5. FC(F)(F)c1ccc(CNc2ccc(Cc3c[nH]c4ncc(Cl)cc34)cn2)cn1

Reply |
1: 18; 2: 1.58; 3: -1.11; 4: 1.77; 5: 9
